Tested on: C. albicans CaCi-17 growth, Alamar Blue fluorescence, 48 h
Assay: antifungal potency against resistant Candida albicans – CaCi-17 isolate, Alamar Blue, cherry-pick retest, confirmation (AID 588530)
Calls of active or inactive are those of the source.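 How the source made its calls: active means Alamar Blue signal falls with dose, AC50 no more than twice the top valid dose; inconclusive means flat curve near half-strength inhibition, or poor fit; inactive means the rest.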
Give measured AC50 for each item. Keep answers brief.

Lab note: need AC50 for CCOC(=O)N1C(=O)C2(CCCCC2)N(c2ccc(C)cc2)C1=S on C. albicans CaCi-17 growth, Alamar Blue fluorescence, 48 h, anyone have it?
1.3 µM

Lab note: need AC50 for Oc1c(C(Nc2nccs2)c2ccc(C(F)(F)F)cc2)ccc2cccnc12 (configuration not stated) on C. albicans CaCi-17 growth, Alamar Blue fluorescence, 48 h, anyone have it?
4.11 µM

Lab note: need AC50 for O=C(Oc1c(Cl)cc(Cl)c2cccnc12)c1cccs1 on C. albicans CaCi-17 growth, Alamar Blue fluorescence, 48 h, anyone have it?
3.29 µM

Lab note: need AC50 for O=[N+]([O-])c1cc(CN2CCN(c3ccccc3)CC2)c(O)c2ncccc12 on C. albicans CaCi-17 growth, Alamar Blue fluorescence, 48 h, anyone have it?
10.6 µM

Lab note: need AC50 for CCCCCCC[n+]1ccc(-c2cc[n+](CCCCCCC)cc2)cc1 on C. albicans CaCi-17 growth, Alamar Blue fluorescence, 48 h, anyone have it?
13.4 µM

Lab note: need AC50 for Oc1ccc(N=Nc2ccc3c(c2)OCCO3)c2ncccc12 on C. albicans CaCi-17 growth, Alamar Blue fluorescence, 48 h, anyone have it?
> 52 µM (inactive)

Lab note: need AC50 for O=C(Oc1c(Cl)cc(Cl)c2cccnc12)c1ccco1 on C. albicans CaCi-17 growth, Alamar Blue fluorescence, 48 h, anyone have it?
1.71 µM

Lab note: need AC50 for O=c1ccc(N=Nc2ccccc2)ccc1O on C. albicans CaCi-17 growth, Alamar Blue fluorescence, 48 h, anyone have it?
4.73 µM

Lab note: need AC50 for O=C(N/N=C/c1c(O)ccc2ccccc12)c1cccc(C(F)(F)F)c1 on C. albicans CaCi-17 growth, Alamar Blue fluorescence, 48 h, anyone have it?
> 52 µM (inactive)

Lab note: need AC50 for Oc1ccc(N=Nc2ccc3c(c2)OCCO3)c2cccnc12 on C. albicans CaCi-17 growth, Alamar Blue fluorescence, 48 h, anyone have it?
10.8 µM

Lab note: need AC50 for C(C#CCCCCCCCCC[n+]1ccccc1)#CCCCCCCCCC[n+]1ccccc1 on C. albicans CaCi-17 growth, Alamar Blue fluorescence, 48 h, anyone have it?
1.52 µM

Lab note: need AC50 for C=CCNC(=S)N/N=C(\C)c1ccccn1 on C. albicans CaCi-17 growth, Alamar Blue fluorescence, 48 h, anyone have it?
8.96 µM

Lab note: need AC50 for CCN(CC)S(=O)(=O)c1cc(OC)ccc1N=Nc1ccc(O)c2ncccc12 on C. albicans CaCi-17 growth, Alamar Blue fluorescence, 48 h, anyone have it?
15.3 µM

Lab note: need AC50 for COc1ccc(C)cc1N=Nc1ccc(O)c2ncccc12 on C. albicans CaCi-17 growth, Alamar Blue fluorescence, 48 h, anyone have it?
2.99 µM

Lab note: need AC50 for CN1CCN(C(c2ccc(C(F)(F)F)cc2)c2cc(Cl)c3cccnc3c2O)CC1 (configuration not stated) on C. albicans CaCi-17 growth, Alamar Blue fluorescence, 48 h, anyone have it?
6.34 µM

Lab note: need AC50 for Oc1c(C(Nc2nc3ccccc3s2)c2ccco2)ccc2cccnc12 (configuration not stated) on C. albicans CaCi-17 growth, Alamar Blue fluorescence, 48 h, anyone have it?
3.97 µM

Lab note: need AC50 for CCOc1ccc(N=Nc2ccc(O)c3ncccc23)cc1 on C. albicans CaCi-17 growth, Alamar Blue fluorescence, 48 h, anyone have it?
11.6 µM

Lab note: need AC50 for Oc1c(CN2CCN(c3ccc(F)cc3)CC2)cc(Cl)c2cccnc12 on C. albicans CaCi-17 growth, Alamar Blue fluorescence, 48 h, anyone have it?
7.42 µM

Lab note: need AC50 for O=Nc1c(-c2cccc([N+](=O)[O-])c2)nc2ncccn12 on C. albicans CaCi-17 growth, Alamar Blue fluorescence, 48 h, anyone have it?
4.77 µM

Lab note: need AC50 for O=Cc1ccc(O)c2ncccc12 on C. albicans CaCi-17 growth, Alamar Blue fluorescence, 48 h, anyone have it?
13.7 µM

Lab note: need AC50 for Cc1cc(NC(c2ccc(Cl)cc2)c2ccc3cccnc3c2O)no1 (configuration not stated) on C. albicans CaCi-17 growth, Alamar Blue fluorescence, 48 h, anyone have it?
2.49 µM

Lab note: need AC50 for CCCCC(=O)NC(c1ccco1)c1cc(Cl)c2cccnc2c1O (configuration not stated) on C. albicans CaCi-17 growth, Alamar Blue fluorescence, 48 h, anyone have it?
24.9 µM

Lab note: need AC50 for COc1cccc(N=Nc2ccc(O)c3ncccc23)c1 on C. albicans CaCi-17 growth, Alamar Blue fluorescence, 48 h, anyone have it?
3.91 µM

Lab note: need AC50 for Oc1c(C(c2ccc(Cl)cc2)N2CCCC2)cc(Cl)c2cccnc12 (configuration not stated) on C. albicans CaCi-17 growth, Alamar Blue fluorescence, 48 h, anyone have it?
7.68 µM

Lab note: need AC50 for O=C(N/N=C/c1cc2c3c(c1O)CCCN3CCC2)c1ccccc1O on C. albicans CaCi-17 growth, Alamar Blue fluorescence, 48 h, anyone have it?
4.28 µM

Lab note: need AC50 for CN1CCN(C(c2ccc(C(F)(F)F)cc2)c2ccc3cccnc3c2O)CC1 (configuration not stated) on C. albicans CaCi-17 growth, Alamar Blue fluorescence, 48 h, anyone have it?
8.86 µM

Lab note: need AC50 for COc1cccc(N=Nc2ccc3cccnc3c2O)c1 on C. albicans CaCi-17 growth, Alamar Blue fluorescence, 48 h, anyone have it?
5.37 µM

Recorded values, source PubChem BioAssay AID588530.
